Values from PubChem BioAssay (NCI)

- Test system: NCI-H23 lung
- ASSAY PROCEDURE: NCI-60 one-dose screen, 48 h (100 = growth as untreated, 0 = no growth, -100 = all killed)
- APPLIED CONDITIONS: 10 µM unless noted
About 83,000 compounds went through this panel and 20% of them were active in at least one assay; those are over-represented in the sample as a whole. Activity calls are given as the source filed them. Rule for the calls: active = growth percent below 10; inactive = the rest.
READOUT TYPE: growth

{"columns": ["MOL", "growth"],
 "data": [
  ["Cn1cc(Nc2nccc(-c3ccc(N4CCCC4)c(C#N)c3)n2)cn1", "63.3% (inactive)"],
  ["COc1cc(/C=C/C(=O)c2cccc(-n3cc(-c4ccccc4)[nH]c3=O)c2)cc(OC)c1OC", "-27.4% (active)"]
]}

INPUT: // query growth value for entry Clc1ccc(-c2nnc(Cn3ccnc3)o2)cc1
OUTPUT: 93.9% (inactive)

====

- Test system: HCC-2998 colon
- ASSAY PROCEDURE: NCI-60 one-dose screen, 48 h (100 = growth as untreated, 0 = no growth, -100 = all killed)
- APPLIED CONDITIONS: 10 µM unless noted
About 83,000 compounds went through this panel and 20% of them were active in at least one assay; those are over-represented in the sample as a whole.
READOUT TYPE: growth (%)
Numbers only; they are read as %.

INPUT: // query growth value for entry O=C1NC(=S)S/C1=C\N1N=C(c2ccc(Cl)cc2)CC1c1ccc(F)cc1 (configuration not stated)
OUTPUT: 100

INPUT: // query growth value for entry Cc1csc(NC(=O)c2sc3nc(-c4cccs4)ccc3c2N)n1
OUTPUT: 114

INPUT: // query growth value for entry CC(C)OC(=O)NNC(=O)c1ccncc1
OUTPUT: 119

INPUT: // query growth value for entry Nc1ccc(S(=O)(=O)Nc2ccsc2-c2nc(-c3ccccc3)no2)cc1
OUTPUT: 79.4

INPUT: // query growth value for entry COc1ccc(/C=C2\COc3ccc(O)cc3C2=O)cc1OC
OUTPUT: 121

INPUT: // query growth value for entry COc1ccc(Oc2nc(Nc3ccc(N4CCCCC4)nc3)ncc2NC(=O)c2cc(OC)cc(OC)c2)cc1
OUTPUT: 65.8

====

- Test system: NCI-H322M lung
- ASSAY PROCEDURE: NCI-60 one-dose screen, 48 h
- APPLIED CONDITIONS: 10 µM unless noted
The panel holds about 83,000 compounds, 20% with a hit somewhere; the sample as a whole holds those more often. Calls of active or inactive are those of the source. Rule for the calls: active = growth percent below 10; inactive = the rest.
Outcome field: choose from active, inactive

{"columns": ["COMPOUND", "GROUP"],
 "data": [
  ["O=c1cc(-c2ccc(OCc3ccccc3)cc2)oc2c(I)c(OCc3ccccc3)cc(OCc3ccccc3)c12", "inactive"]
]}

INPUT: Name the outcome recorded for Cc1ccc(-n2nnc(C3=NCCc4c3[nH]c3ccc(Cl)cc43)c2C)cc1 in the assay.
OUTPUT: inactive

INPUT: Name the outcome recorded for N=c1ccn2c(n1)OC1C(O)C(CO)OC12 (stereo unspecified) in the assay.
OUTPUT: inactive

INPUT: Name the outcome recorded for COc1ccc(-n2sc(=O)n(Cc3ccc(COC(=O)C(C)c4ccc(CC(C)C)cc4)cc3)c2=O)cc1 (stereo unspecified) in the assay.
OUTPUT: inactive

====

Quick reference for growth among some compounds
- System: BT-549 breast
- ASSAY PROCEDURE: NCI-60 one-dose screen, 48 h (100 = growth as untreated, 0 = no growth, -100 = all killed)
- APPLIED CONDITIONS: 10 µM unless noted
This is part of a sample that, as a whole, favours compounds with a hit. Of some 83,000 tested, about 20% had one in any assay.
Numbers only; they are read as %.

Please review the following examples before continuing.
{"columns": ["COMPOUND", "growth (%)"],
 "data": [
  ["CCCc1cc(=O)oc2c3c(c4c(c12)OC(C)(C)C=C4)O[C@@H](C)[C@H](C)C3=O", 68.7],
  ["CCCCNC(=O)c1cc(NCc2cc(O)ccc2O)ccc1O", 46.1],
  ["CCCCCCCCc1cc[n+](CC(=O)c2ccc(Br)cc2)cc1", 77.8],
  ["CCc1cc(Cc2cc(CC)cc(C(C)(C)C)c2O)c(O)c(C(C)(C)C)c1", 40.5],
  ["Cc1ccc2c(n1)C(=O)C(Oc1ccc(F)cc1)=CC2=O", 85.4],
  ["CN(C)c1ccc2cc(-c3ccccc3F)c(N)nc2c1", 25.5],
  ["CN(C)CCN1C(=O)c2cccc3c(-c4ccc(-c5nc6c7ccccc7c7ccccc7c6[nH]5)cc4)ccc(c23)C1=O", 104],
  ["N#Cc1c(-c2ccc(C(F)(F)F)cc2)cc(N2CC(O)C2)n2c1nc1ccccc12", 37.9],
  ["C/C(=N\\NC(N)=S)c1nc2ccc(Cl)cc2[nH]1", 74.9],
  ["N#Cc1c(NC(=O)c2ccccc2I)sc2c1CCCC2", 52.2]
]}

INPUT: // query growth value for entry O=C1c2ccccc2C2(c3ccc(O)cc3)c3ccccc3Oc3cccc1c32 (stereo unspecified)
OUTPUT: 55.1

====

- System: 786-0 renal
- ASSAY PROCEDURE: NCI-60 one-dose screen, 48 h (100 = growth as untreated, 0 = no growth, -100 = all killed)
- APPLIED CONDITIONS: 10 µM unless noted
This is part of a sample that, as a whole, favours compounds with a hit. Of some 83,000 tested, about 20% had one in any assay.
READOUT TYPE: growth (%)
Numbers only; they are read as %.

Please review the following examples before continuing.
{"columns": ["MOLECULE", "MEASURE UNIT", "growth"],
 "data": [
  ["COC1=CC(c2ccc[nH]2)=N/C1=C\\c1[nH]c(C)c(C(=O)OCCn2cc(CCC[C@@H]3Cc4cc(O)ccc4C4CC[C@]5(C)[C@@H](O)CC[C@H]5C43)nn2)c1C (some centres undefined)", "%", 62.5],
  ["CCCn1nc(-c2ccccc2)c2c(-c3ccccc3)onc2c1=O", "%", 94.1],
  ["O=S(=O)(NCCNc1cc(-c2c(-c3cccc(O)c3)nc3sccn23)ccn1)c1ccc(Br)cc1", "%", 52.7]
]}

INPUT: // query growth value for entry O=C(NC1CCOCC1)c1ccc2c(c1)CN(c1ncc(Cc3cccc(-n4cccn4)c3)s1)CC2
OUTPUT: 68.7

====

- Tested on: 786-0 renal
- ASSAY PROCEDURE: NCI-60 one-dose screen, 48 h (100 = growth as untreated, 0 = no growth, -100 = all killed)
- APPLIED CONDITIONS: 10 µM unless noted
This is part of a sample that, as a whole, favours compounds with a hit. Of some 83,000 tested, about 20% had one in any assay.
READOUT TYPE: growth (%)
Numbers only; they are read as %.

Please review the following examples before continuing.
{"columns": ["COMPOUND", "growth, %"],
 "data": [
  ["C=C1C(=O)O[C@H]2[C@H]1CC/C(COC(=O)/C=C\\C(=O)NCc1ccc(Cn3c(=O)sn(-c4ccc(Cl)cc4)c3=O)cc1)=C\\CC[C@@]1(C)O[C@@H]21", -82.5],
  ["O=C1Nc2ccccc2/C1=N/N=C/c1ccc(OC2OC(CO)C(O)C(O)C2O)cc1 (stereo not given)", 109],
  ["O=C1CSC(c2ccc(O)cc2)N1c1nnc(Cn2cnnc2)o1 (stereo not given)", 94.1],
  ["CN(CCC(=O)/C(=C\\c1ccccc1)c1ccc(Cl)cc1)Cc1ccccc1", -64.5],
  ["COc1cc2oc3cc(C)oc(=O)c3c2cc1OC", 83.4],
  ["COc1cc2c(cc1OC)-c1ccc3cc4c(cc3c1N(CCCN(C)C)C2)OCO4", 35]
]}

INPUT: // query growth value for entry CC(C)(C)CC(C)(C)Nc1c(-c2ccc(-c3ccccc3)cc2)nc2cnccn12
OUTPUT: 80.6

INPUT: // query growth value for entry COc1ccc(N(C)c2nc(Cl)nc3cnn(C)c23)cc1
OUTPUT: 8.74

INPUT: // query growth value for entry CCN(CC)CCCC(C)NCc1ccccc1 (stereo not given)
OUTPUT: 89.8

INPUT: // query growth value for entry CCN(CC)CCCNC(=O)c1ccc(N)cc1O
OUTPUT: 105

INPUT: // query growth value for entry Clc1ccc2c(NCCCN3CCN(c4nc(-n5ccnc5)nc5ccccc45)CC3)ccnc2c1
OUTPUT: 78.8

INPUT: // query growth value for entry C=C(C)[C@@H]1CC[C@]2(C(=O)NCC(=O)O)CC[C@]3(C)[C@H](CC[C@@H]4[C@@]5(C)Cc6c([nH]c7ccccc67)C(C)(C)[C@@H]5CC[C@]43C)[C@@H]12
OUTPUT: 84.4

INPUT: // query growth value for entry Cc1cc(C)on1
OUTPUT: 101

INPUT: // query growth value for entry COc1cc2c(c(OC)c1OC)C(=O)/C(=C/c1cc(C)c(O)c(C)c1)S2
OUTPUT: 42.6

INPUT: // query growth value for entry CCOC(=O)C1=C(C)NC(SCc2nnc(-c3ccc(Cl)cc3)o2)=NC1c1ccc(Cl)cc1Cl (stereo not given)
OUTPUT: 65.2

INPUT: // query growth value for entry COc1cc2c(cc1OC)-c1ccc3cc4c(cc3c1N(CCN1CCCC1)C2)OCO4
OUTPUT: -32

INPUT: // query growth value for entry CCCCOC(=O)c1ccc(NC(=O)C(C)N2CCOCC2)cc1 (stereo not given)
OUTPUT: 99.1

INPUT: // query growth value for entry Fc1ccc(Nc2ccc3cc(OCCCN4CCOCC4)ccc3n2)cc1F
OUTPUT: 48.6

INPUT: // query growth value for entry O=C1Nc2ccccc2SC1c1ccccc1Cl (stereo not given)
OUTPUT: 97.5

INPUT: // query growth value for entry CCCCCCCCCCCCCCCCCC1=NCCN1C(=O)OCCO
OUTPUT: 87.2

INPUT: // query growth value for entry OCCCCc1nccc2c1[nH]c1ccccc12
OUTPUT: 102

INPUT: // query growth value for entry CCOc1cc(N)ccc1C(=O)NCCCN(CC)CC
OUTPUT: 100

INPUT: // query growth value for entry O=C1c2ccccc2C2(c3ccc(O)cc3)c3ccccc3Oc3cccc1c32 (stereo not given)
OUTPUT: 40.6
